test system: C57BL/6 (B6) male mice; test: Blood counts in the tolerability study; type: in vivo; conditions: mouse, in vivo, po, 25 mg/kg
quantity.name: RBC

Quick check: RBC on C57BL/6 (B6) male mice, item Nc1ccc(C(=O)Nc2cccc(-c3c[nH]c4ncccc34)c2)cc1O [Compound 3] ?
8.76 10^12/L

---

Recorded logSH2O for the following compounds
Assay: Solubility by nephelometry (water, buffer pH 7.4)
Type: physicochemical
Settings: water
Experimental: Compounds’ solubility was measured by the NEPHELOstar microplate instrument (BMG Labtech, Offenburg, Germany). Stock solutions were prepared by dissolving the tested compounds in ultrapure water or sodium phosphate buffer (pH 7.4) to obtain a concentration of 160 and 1,000 μg/mL. […] Each well was scanned with 80% laser power in matrix 3 × 3, beam width 2 mm, and obtained data were evaluated in GraphPad Prism 7.03 (GraphPad Software, San Diego, CA, USA) using segmental linear regression.
API doc: respond with a numeric literal and nothing else, no unit.

>>> endpoint_result("O=C(O[C@@H]1Cc2c(O)cc(O)cc2O[C@@H]1c1ccc(O)c(O)c1)c1cc(O)c(O)c(O)c1 [Compound 7, epicatechin gallate]")
"−2.75"

Form field: reported logSH2O of c1ccc2[nH]c(NC3CCNCC3)nc2c1 [Compound 1]
−3.81

---

test system: C57BL/6 (B6) male mice; assay: Blood counts in the tolerability study; type: in vivo; conditions: mice, 25 mg/kg p.o. days 0, 3, 5; blood day 8; AVG; unit assumed
quantity.name: Mon

Which Mon is reported for this compound? CC(C)n1nc(-c2cc3cc(O)ccc3[nH]2)c2c(N)ncnc21
0.59 10^9/L

---

assay: Solubility by nephelometry (water, buffer pH 7.4); format: physicochemical; conditions: sodium phosphate buffer pH 7.4, nephelometry
quantity.name: Sol. (buffer 7.4)

>>> endpoint_result("Nc1ccc(C(=O)Nc2cccc(-c3c[nH]c4ncccc34)c2)cc1O [Compound 3]")
"lower than 6 μg/mL"
>>> endpoint_result("CO[C@H]1C[C@@H]2CC[C@@H](C)[C@@](O)(O2)C(=O)C(=O)N2CCCC[C@H]2C(=O)O[C@H]([C@H](C)C[C@@H]2CC[C@@H](O)[C@H](OC)C2)CC(=O)[C@H](C)/C=C(\\C)[C@@H](O)[C@@H](OC)C(=O)[C@H](C)C[C@H](C)/C=C/C=C/C=C/1C [Rapamycin, rapamycin]")
"lower than 6 μg/mL"
>>> endpoint_result("CN(C)c1cccc(-c2cccc(C(N)=O)c2)c1 [Compound 6]")
"lower than 6 μg/mL"
>>> endpoint_result("CC(C)n1nc(-c2cc3cc(O)ccc3[nH]2)c2c(N)ncnc21 [Torkinib, torkinib]")
"<6 µg/mL"

---

test system: C57BL/6 (B6) male mice; experiment: Blood counts in the tolerability study; type: in vivo; conditions: mouse, in vivo, po, 25 mg/kg
quantity.name: Mon

So what's the measured Mon for this one? Nc1ccc(C(=O)Nc2cccc(-c3c[nH]c4ncccc34)c2)cc1O [Compound 3]
0.52 10^9/L

---

test: CNS MPO desirability score; details: from experimental and calculated data, method of Wager et al. (2016); scale 0-6
quantity.name: MPO (CNS MPO score)
I'd appreciate a reply containing only the number, no unit.

Example entries begin here.
>>> endpoint_result("CO[C@H]1C[C@@H]2CC[C@@H](C)[C@@](O)(O2)C(=O)C(=O)N2CCCC[C@H]2C(=O)O[C@H]([C@H](C)C[C@@H]2CC[C@@H](O)[C@H](OC)C2)CC(=O)[C@H](C)/C=C(\\C)[C@@H](O)[C@@H](OC)C(=O)[C@H](C)C[C@H](C)/C=C/C=C/C=C/1C [Rapamycin, rapamycin]")
0.7
>>> endpoint_result("CN(C)c1cccc(-c2cccc(C(N)=O)c2)c1 [Compound 6]")
5
>>> endpoint_result("Br.Br.c1ccc2[nH]c(NC3CCNCC3)nc2c1 [Compound 2]")
4.9

For the compound c1ccc2[nH]c(NC3CCNCC3)nc2c1 [Compound 1] , what MPO (CNS MPO score) is on record?
5.2

Which MPO (CNS MPO score) value is on record for Nc1ccc(C(=O)Nc2cccc(-c3c[nH]c4ncccc34)c2)cc1O [Compound 3] ?
4.5

Quick check: MPO (CNS MPO score) of NC(=O)[C@@H]1CC[C@H](C(=O)O)N1 [Compound 4] ?
4.9
